- EXPERIMENT: Evaluation of dissolution stability (content change on storage in dissolved state)
- Assay type: physicochemical
- ASSAY_CONDITIONS: 1 mg/1 ml dissolved state, 40° C. and RH 75%, day 1
Where no end group is shown, it is not given here. [ ]: non-standard residue; d: D form. Hyp = O=C(O)[C@@H]1C[C@@H](O)CN1; Tle = CC(C)(C)[C@H](N)C(=O)O
Can you tell me Day 1 content (%) for the items I'm about to list?
Numbers only, in %.

Some solved cases for reference:
>>> result_value("Hyp-Gly-Gln-Asp-Ala-Leu ([Hyp]GQDAL) [Example 36]")
94.13
>>> result_value("Hyp-Gly-Gln-Ala-Gly-Leu ([Hyp]GQAGL) [Example 122]")
98.66

Lab note: each substance below needs its Day 1 content (%) filled in.
1. Hyp-Gly-Gln-Glu-tert Leu-Leu-Ala ([Hyp]GQE[Tle]LA) [Example 93]
2. Hyp-Gly-Gln-Ala-Leu-Leu ([Hyp]GQALL) [Example 123]
3. Hyp-Gly-Gln-Glu-Gly-Leu-Ala ([Hyp]GQEGLA) [Example 69]

# output
98.35
99.14
96.94
